system-name: M4 muscarinic receptor (Homo sapiens, UniProt P08173)
Construct: expressed in transfected cells; host or cells: CHO (M4-CHO)
Sequence (P08173 1-479): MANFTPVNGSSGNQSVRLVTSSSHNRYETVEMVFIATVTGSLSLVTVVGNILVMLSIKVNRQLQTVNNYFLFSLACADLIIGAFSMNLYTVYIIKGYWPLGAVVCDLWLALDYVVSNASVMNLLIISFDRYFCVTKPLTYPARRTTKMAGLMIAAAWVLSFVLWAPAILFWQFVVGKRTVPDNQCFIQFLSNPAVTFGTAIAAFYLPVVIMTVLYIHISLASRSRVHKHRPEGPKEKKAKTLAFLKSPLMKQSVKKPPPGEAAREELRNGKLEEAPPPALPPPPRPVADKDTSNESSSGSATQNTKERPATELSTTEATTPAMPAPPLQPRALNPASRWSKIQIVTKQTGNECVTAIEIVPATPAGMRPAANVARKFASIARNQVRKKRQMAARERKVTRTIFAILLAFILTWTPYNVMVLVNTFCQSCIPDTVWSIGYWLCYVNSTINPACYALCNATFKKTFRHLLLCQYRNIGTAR
assay-name: Functional mobilization of intracellular calcium (FLIPR) in M4-CHO cells
Format: cell-based
measurement-conditions: Table 4; 100% efficacy is the maximum response obtained with the Carbachol control
measured-attribute: Emax

q: Specify Emax for CC(=O)NC1CCC2(CCN(C3CCCCC3)CC2)c2ccccc21 (stereo not shown) [compound 716] and stop.
a: 25 to 100%

q: Check the records and state Emax for CCOC(=O)N1CCC(N2CCC3(CC2)CN(C(=O)N2CCCCC2)c2ccc(F)cc23)CC1 [compound 598]
a: 25 to 100%

q: // Input: CN(C)C(=O)N[C@H]1CCC2(CCN(C3CCCCCC3)CC2)c2ccccc21 [compound 617] . Output its Emax only.
a: > 100%

q: Indicate its recorded Emax; the molecule in question is CN(C)C(=O)N1CC2(CCN(C3CCN(c4ccsc4)CC3)CC2)c2cc(F)ccc21 [compound 561]
a: 25 to 100%

q: Name the recorded Emax of the molecule listed here: Cc1ncc(N2CCC(N3CCC4(CC3)CN(C(=O)N(C)C)c3ccc(F)cc34)CC2)nc1C [compound 762]
a: 25 to 100%

q: Using the record for O=C(N[C@H]1CC2(CCN(CCC3CC4CC[C@@H]3C4)CC2)c2ccccc21)c1ccoc1 (stereo partly shown) [compound 798] , state its measured Emax.
a: < 25%

q: For CC1(C)C(=O)c2ccccc2C12CCN([C@@H]1C[C@@H]3CC[C@H]1C3)CC2 [compound 758] , write its Emax.
a: < 25%

q: For the molecule CC(=O)N[C@H]1CC2(CCN(C3CC(C)(C)CC(C)(C)C3)CC2)c2ccccc21 [compound 641] , give its reported Emax.
a: < 25%

q: Hello, please tell me recorded Emax for this one: CCOC(=O)N1CCC(N2CCC3(CC2)CN(C(C)=O)c2ccccc23)CC1 [compound 626]
a: 25 to 100%

q: Return the recorded Emax value; entry: CC(=O)N1CC2(CCN(C3CCN(c4cncc(CC(C)C)n4)CC3)CC2)c2ccccc21 [compound 893]
a: < 25%

q: Give reported Emax value for CCOC(=O)N1CC[C@H](CN2CCC3(CC2)CN(C(=O)N(C)C)c2ccc(F)cc23)C1 [compound 695]
a: 25 to 100%

q: Provide Emax value for the following molecule: CN(C)C(=O)N1CC2(CCN(C[C@H]3CCN(c4nccs4)C3)CC2)c2cc(F)ccc21 [compound 852]
a: 25 to 100%

q: Indicate the recorded Emax value for this molecule: CC(=O)N[C@H]1CC2(CCN(CC3CCN(C(=O)OC4CCC4)CC3)CC2)c2ccccc21 [compound 818]
a: < 25%

q: # return recorded Emax for input CN(C)C(=O)N1CC2(CCN(C3CCN(C(=O)OCC(F)(F)F)CC3)CC2)c2cc(F)ccc21 [compound 938]
a: 25 to 100%

q: Please list Emax recorded for the molecule CN(C)C(=O)N1CC2(CCN(C3CCN(c4cnccn4)CC3)CC2)c2cc(F)ccc21 [compound 895]
a: 25 to 100%

q: Provide one value: measured Emax of CCOC(=O)N1C2CCC1CC(N1CCC3(CC1)CN(C(C)=O)c1ccc(C(F)(F)F)cc13)C2 (stereo not shown) [compound 583]
a: 25 to 100%
